Target: T1, monkey IGF-1R (on COS-7 cells) (African green monkey)
T1 construct: whole, on cells
Test: FACS titration, Cos-7
QUANTITY_MEASURED: EC50 (nM)
All answers are understood in nM, so give the number only.

Ask: Please give the documented EC50 of hz208F2 H052/L018 (antibody, human IgG1, kappa, V domains shown, humanized 208F2 variant) VH: QVQLVQSGAEVKKPGASVKVSCKASGYTFTSYYMHWVRQAPGQGLEWMGWIWPGDGSTKYAQKFQGRVTMTRDTSTSTVYMELSSLRSEDTAVYFCASPMITPNYAMDYWGQGTLVTVSS VL: DIQMTQSPSSLSASVGDRVTITCRASQDISKYLNWYQQKPGKAPKLLIYYTSRLQSGVPSRFSGRGSGTDYSLTISSLQPEDFATYFCQQGSTLPYTFGGGTKVEIKR
Reply: 0.99

Ask: Please give the documented EC50 of hz208F2 H049/L018 (antibody, human IgG1, kappa, V domains shown, humanized 208F2 variant) VH: QVQLVQSGAEVKKPGASVKVSCKASGYTFTSYYMHWVRQAPGQGLEWMGWIWPGDGSTKYAQKFQGRVTMTRDKSSSTVYMELSSLRSEDTAVYYCASPMITPNYAMDYWGQGTLVTVSS VL: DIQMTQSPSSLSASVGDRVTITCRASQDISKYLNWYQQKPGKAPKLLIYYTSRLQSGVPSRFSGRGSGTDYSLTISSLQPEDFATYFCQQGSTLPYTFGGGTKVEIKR
Reply: 0.69

Ask: Please give the documented EC50 of hz208F2 H070/L018 (antibody, human IgG1, kappa, V domains shown, humanized 208F2 variant) VH: QVQLVQSGAEVKKPGASVKVSCKASGYTFTSYYMHWVRQAPGQGLEWMGWIWPGDGSTKYAQKFQGRVTMTRDTSTSTVYMELSSLRSEDTAVYYCASPMITPNYAMDYWGQGTLVTVSS VL: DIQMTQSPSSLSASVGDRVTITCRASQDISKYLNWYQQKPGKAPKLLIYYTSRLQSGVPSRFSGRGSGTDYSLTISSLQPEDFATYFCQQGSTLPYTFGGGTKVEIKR
Reply: 0.73
